// protein stability index lookup, one value per entry
B1: INTS3 (parent)
chain: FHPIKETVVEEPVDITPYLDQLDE

Variants of: B1
Experiment: protein stability index of a GFP-peptide fusion (GPS, HEK-293T) (PSI 1-6); higher = more stable;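 note: lentivirally expressed fusions sorted by FACS into six bins by GFP to DsRed ratio, PSI derived from sequencing read proportions per bin multiplied by bin number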
Conditions: c terminus: a fixed tail appended
// response body must contain only the number

Mutation notation	Readout kind	Value measured
E11K	protein stability index	3.02
L22T	protein stability index	3.38
E24K	protein stability index	2.42
E24D	protein stability index	3.75
Y18W	protein stability index	3.11

Per the record, V8L has protein stability index of 3.56
